Here, each record is paired with measured plasma membrane CFTR intensity data.
Target Desc: Cystic fibrosis transmembrane conductance regulator (Homo sapiens)
Protocol: F508del-CFTR plasma membrane relocalization enhancers – imaging, HeLa, high-content microscopy, immunofluorescence, primary screen (AID 1224864);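 also: HeLa cells stably expressing F508del-CFTR stained with 3G11 antibody against NBD1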;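 as to plasma membrane CFTR intensity: mean immunofluorescence in a thin cell-margin band taken as plasma membrane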
Protocol Conditions: PM immunofluorescence imaging, 24 h, at 10 µM, stronger effect = higher value, relative to vehicle wells set at 100
The campaign covered roughly 2,000 compounds. About 20 (1%) were called active. For the sample, actives were picked, then their nearest neighbours and some compounds at random. Residues, ends and D or L forms follow the SMILES beside them. *: point of attachment. Boc = CC(C)(C)OC(=O)*; OBn = c1ccc(CO*)cc1
Unit % implied. Number only.

INSERT INTO assay_data (compound, value_kind, observed_value) VALUES
  ('O=c1[nH]c(Cc2ccccc2)nc2c1oc1ccccc12', 'plasma membrane CFTR intensity', 78),
  ('O=C(OCC1CCCN2CCCCC12)c1ccc2c(c1)OCO2 (stereo not drawn)', 'plasma membrane CFTR intensity', 85),
  ('C[C@H]1O[C@H]1P(=O)(O)O', 'plasma membrane CFTR intensity', 103),
  ('CN1C(=O)C(O)(CC(=O)c2ccccc2O)c2cc(Br)ccc21 (stereo not drawn)', 'plasma membrane CFTR intensity', 159);

What measured plasma membrane CFTR intensity goes with COc1ccc2[nH]c3c(c2c1)CCNC3C1CC=C(C)CC1 (stereo not drawn) ?
99

What measured plasma membrane CFTR intensity goes with CC(C)CC(NC(=O)C(NC(=O)OC(C)(C)C)C(C)C)C(=O)NC(CCC(=O)OCc1ccccc1)C(N)=O (stereo not drawn) (Boc-Val-Leu-Glu(OBn)-NH2; configuration not given here) ?
82

What measured plasma membrane CFTR intensity goes with CCOC(=O)c1ccc(NC(=S)NCCc2ccccc2F)cc1 ?
81

What measured plasma membrane CFTR intensity goes with O=C1C(=O)c2ccccc2C(O)=C1c1ccccc1F ?
70

---

Target Desc: Cystic fibrosis transmembrane conductance regulator (Homo sapiens) (UniProt P13569)
Sequence (P13569 whole entry, looked up, stated change not applied): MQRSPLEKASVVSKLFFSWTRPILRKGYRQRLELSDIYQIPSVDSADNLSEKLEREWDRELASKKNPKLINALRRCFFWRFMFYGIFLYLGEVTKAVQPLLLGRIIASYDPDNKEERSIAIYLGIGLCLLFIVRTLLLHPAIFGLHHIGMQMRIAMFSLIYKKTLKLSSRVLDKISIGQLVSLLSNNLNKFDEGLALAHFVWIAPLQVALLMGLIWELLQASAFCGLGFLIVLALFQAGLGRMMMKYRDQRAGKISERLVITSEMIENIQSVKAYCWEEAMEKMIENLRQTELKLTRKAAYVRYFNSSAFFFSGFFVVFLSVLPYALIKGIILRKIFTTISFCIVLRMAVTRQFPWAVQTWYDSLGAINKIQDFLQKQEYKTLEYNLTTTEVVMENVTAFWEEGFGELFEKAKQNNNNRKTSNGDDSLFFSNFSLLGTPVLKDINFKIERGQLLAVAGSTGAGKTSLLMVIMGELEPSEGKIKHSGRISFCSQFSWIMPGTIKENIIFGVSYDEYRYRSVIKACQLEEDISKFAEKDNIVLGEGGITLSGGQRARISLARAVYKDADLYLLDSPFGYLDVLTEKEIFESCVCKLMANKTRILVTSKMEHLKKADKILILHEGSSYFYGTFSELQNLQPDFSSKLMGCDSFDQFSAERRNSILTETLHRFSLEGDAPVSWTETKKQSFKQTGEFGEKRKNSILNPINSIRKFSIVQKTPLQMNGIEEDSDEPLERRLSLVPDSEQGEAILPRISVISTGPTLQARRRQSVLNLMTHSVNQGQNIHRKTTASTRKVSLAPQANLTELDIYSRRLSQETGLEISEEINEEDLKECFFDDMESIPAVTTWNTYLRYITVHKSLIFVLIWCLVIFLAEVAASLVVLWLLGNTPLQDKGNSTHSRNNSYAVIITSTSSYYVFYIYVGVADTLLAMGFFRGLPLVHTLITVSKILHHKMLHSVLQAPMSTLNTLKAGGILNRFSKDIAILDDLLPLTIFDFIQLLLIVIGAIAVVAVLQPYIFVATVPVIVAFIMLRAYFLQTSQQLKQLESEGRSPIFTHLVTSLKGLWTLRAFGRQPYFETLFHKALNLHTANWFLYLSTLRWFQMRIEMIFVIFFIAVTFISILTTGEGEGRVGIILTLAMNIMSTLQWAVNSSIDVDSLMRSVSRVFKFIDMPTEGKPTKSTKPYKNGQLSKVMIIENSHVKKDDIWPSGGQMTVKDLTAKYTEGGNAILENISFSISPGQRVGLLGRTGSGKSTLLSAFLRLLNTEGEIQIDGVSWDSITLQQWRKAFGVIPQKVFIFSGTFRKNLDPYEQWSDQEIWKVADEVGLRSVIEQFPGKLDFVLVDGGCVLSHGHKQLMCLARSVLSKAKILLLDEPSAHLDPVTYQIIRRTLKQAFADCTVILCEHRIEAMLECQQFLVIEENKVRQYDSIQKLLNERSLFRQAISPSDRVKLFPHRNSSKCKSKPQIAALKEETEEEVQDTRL
Protocol: F508del-CFTR plasma membrane relocalization enhancers – imaging, HeLa, high-content microscopy, immunofluorescence, primary screen (AID 1224864);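 also: HeLa cells stably expressing F508del-CFTR stained with 3G11 antibody against NBD1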
Protocol Conditions: PM immunofluorescence imaging, 24 h, at 10 µM, relative to vehicle wells set at 100
About 20 (1%) of roughly 2,000 compounds were called active. How the calls were made is not given here. Shown is part of a subset that was picked to be rich in actives.
Hello, when you answer, please use one of the following outcomes: 1 (yes) (active), 0 (no) (inactive)

Worked examples, 3 compounds total:
INSERT INTO results (compound, category) VALUES
  ('CCOCc1cc(C)[nH]c(=O)c1C#N', '0 (no)'),
  ('CC(C)=CCC/C(C)=C/CC/C(C)=N/O', '0 (no)'),
  ('Cn1c(=O)[nH]c(=O)c2c1nc(Br)n2CCCO', '0 (no)');

What was the test verdict on O=C(Oc1ccc2c3c(c(=O)oc2c1)CCCC3)c1ccco1 ?
0 (no)

What was the test verdict on COc1cc(C(=O)Nc2ccc(N(C)C)cc2)c([N+](=O)[O-])cc1OC ?
0 (no)

What was the test verdict on Cc1cc(-c2nn(-c3ccccc3F)cc2CN2CCCC(O)C2)c(C)s1 (centres undefined) ?
0 (no)

What was the test verdict on CCOC(=O)c1ccccc1NC(=O)c1ccc(F)cc1 ?
0 (no)

What was the test verdict on COc1ccc2[nH]cc(CCNC(=O)C3CCCNC3=O)c2c1 (centres undefined) ?
0 (no)

What was the test verdict on O=C(Oc1ccccc1)Oc1ccc2c(c1)oc(=O)c1ccccc12 ?
1 (yes)

What was the test verdict on COc1ccccc1Oc1c(C)oc2c(CN3CCN(CCO)CC3)c(O)ccc2c1=O ?
0 (no)

What was the test verdict on COc1ccc(OC)c(NC2=C(Cl)C(=O)N(Cc3ccccc3)C2=O)c1 ?
0 (no)

---

Here, each record is paired with measured total CFTR intensity data.
Target Desc: Cystic fibrosis transmembrane conductance regulator (Homo sapiens) (UniProt P13569)
Protocol: F508del-CFTR plasma membrane relocalization enhancers – imaging, HeLa, high-content microscopy, immunofluorescence, primary screen (AID 1224864);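 also: HeLa cells stably expressing F508del-CFTR stained with 3G11 antibody against NBD1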
Protocol Conditions: PM immunofluorescence imaging, 24 h, at 10 µM, stronger effect = higher value, relative to vehicle wells set at 100; measured here: total cellular F508del-CFTR signal
The whole screen tested about 2,000 compounds, of which about 20 (1%) were called active. Only a selection was taken, and actives are over-represented in it overall. Residues, ends and D or L forms follow the SMILES beside them.
Unit % implied. Number only.

INSERT INTO measurements (compound, target_desc, value_kind, measurement_unit, observed_value) VALUES
  ('O=C(O)[C@H](Cc1ccccc1)NC(=O)N1CCC(Cc2ccccc2)CC1', 'Cystic fibrosis transmembrane conductance regulator (Homo sapiens) (UniProt P13569)', 'total CFTR intensity', '%', 83),
  ('O=C(N/N=C\c1cc([N+](=O)[O-])ccc1N1CCOCC1)c1ccccn1', 'Cystic fibrosis transmembrane conductance regulator (Homo sapiens) (UniProt P13569)', 'total CFTR intensity', '%', 75),
  ('Cc1ncc(CN2CCC(CO)(CCc3ccccc3)CC2)s1', 'Cystic fibrosis transmembrane conductance regulator (Homo sapiens) (UniProt P13569)', 'total CFTR intensity', '%', 75);

What measured total CFTR intensity goes with O=C(NCCO)c1ccc(Cl)c(Cl)c1 ?
90

What measured total CFTR intensity goes with CC(=O)NC(CC(C)C)C(=O)NC(Cc1ccccc1)C(N)=O (stereo not drawn) (Ac-Leu-Phe-NH2; configuration not given here) ?
94

What measured total CFTR intensity goes with O=C1OC(=O)C2C1[C@@H]1CC[C@H]2O1 (some centres not stated) ?
133

What measured total CFTR intensity goes with O=C(Nc1cccc(-c2nc3ncccc3o2)c1)c1ccccc1 ?
72

---

Target Desc: Cystic fibrosis transmembrane conductance regulator (Homo sapiens) (UniProt P13569)
Protocol: F508del-CFTR plasma membrane relocalization enhancers – imaging, HeLa, high-content microscopy, immunofluorescence, primary screen (AID 1224864);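 also: HeLa cells stably expressing F508del-CFTR stained with 3G11 antibody against NBD1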
Protocol Conditions: PM immunofluorescence imaging, 24 h, at 10 µM, stronger effect = higher value, relative to vehicle wells set at 100; measured here: total cellular F508del-CFTR signal
The campaign covered roughly 2,000 compounds. About 20 (1%) were called active. The full list was thinned out, with actives kept by preference.
Value Kind: total CFTR intensity (%)
Unit % implied. Number only.

Look over these answered cases.
INSERT INTO results (molecule, measurement_unit, observed_value) VALUES
  ('O=C(OCC1CCCN2CCCCC12)c1ccc2c(c1)OCO2 (stereo not given)', '%', 81),
  ('CC(=O)c1c(N)nc2n(c1=O)CCCCC2', '%', 78),
  ('CCc1cc(=O)oc2cc(OCC=C(C)C)ccc12', '%', 98),
  ('Cc1coc2cc3oc(=O)c(CCC(=O)O)c(C)c3cc12', '%', 107),
  ('COc1ccc2c(c1OC)C(=O)OC2C1c2c(cc3c(c2OC)OCO3)CCN1C (stereo not given)', '%', 128),
  ('NC12CC3CC(C1)CC(O)(C3)C2', '%', 91);

What measured total CFTR intensity goes with CC(C)CN(C)Cc1c(C(=O)N2CCc3ccccc3C2)nc2ccc(Cl)cn12 ?
81

What measured total CFTR intensity goes with CC(C)(C)C(=O)NC(=S)NNC(=O)c1ccncc1 ?
90

What measured total CFTR intensity goes with Cn1c2[n+](c3ccc(Cl)cc3c1=O)Cc1ccccc1-2 ?
85

What measured total CFTR intensity goes with O=C(O)C(O)c1ccccc1 (stereo not given) ?
81

What measured total CFTR intensity goes with COc1ccc(C(=O)CC2OC(=O)c3c2ccc(OC)c3OC)cc1 (stereo not given) ?
115

What measured total CFTR intensity goes with CN1C(=O)C(O)(CC(=O)c2ccccc2O)c2cc(Br)ccc21 (stereo not given) ?
190

---

Here, each record is paired with measured plasma membrane CFTR intensity data.
Target Desc: Cystic fibrosis transmembrane conductance regulator (Homo sapiens)
Protocol: F508del-CFTR plasma membrane relocalization enhancers – imaging, HeLa, high-content microscopy, immunofluorescence, primary screen (AID 1224864);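 also: HeLa cells stably expressing F508del-CFTR stained with 3G11 antibody against NBD1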;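 as to plasma membrane CFTR intensity: mean immunofluorescence in a thin cell-margin band taken as plasma membrane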
Protocol Conditions: PM immunofluorescence imaging, 24 h, at 10 µM, stronger effect = higher value, relative to vehicle wells set at 100
The whole screen tested about 2,000 compounds, of which about 20 (1%) were called active. The sample as a whole holds a higher share of actives than the screen did.
Unit % implied. Number only.

INSERT INTO measurements (compound, observed_value) VALUES
  ('CCOC(=O)Cn1c(C)cc(=O)c2ccccc21', 114),
  ('CC12CCCCN1CCCc1c2[nH]c2ccccc12 (stereo not drawn)', 104),
  ('COc1ccc(NC(=O)N2CCCCC2c2cccnc2)cc1 (stereo not drawn)', 84);

Any idea what plasma membrane CFTR intensity came out for C=CCC1(Cl)C(=O)C(Cl)=C(N2CCOCC2)C1(OC)OC (stereo not drawn) on Cystic fibrosis transmembrane conductance regulator (Homo sapiens)?
77

Any idea what plasma membrane CFTR intensity came out for Cc1ccc(N2CCN(C(=S)c3ccc(-c4cccc([N+](=O)[O-])c4)o3)CC2)cc1 on Cystic fibrosis transmembrane conductance regulator (Homo sapiens)?
81
